# test name: qHTS assay to identify small molecule agonists or antagonists of the thyroid stimulating hormone receptor (TSHR) signaling pathway - wild type cell line counter screen (AID 1259384); note: % is set by controls: 0 for no effect and ±100 for the full control effect
# condition: HEK293 wild type, cAMP HTRF counter-screen, active compounds read high; series mostly up to 92.4 µM
Results filed as inconclusive are left out. Calls of active or inactive are those of the source. Calls come from the whole dose curve.
readout: cAMP activity change

Check out these entries, answers already filled in.
| compound | cAMP activity change |
| --- | --- |
| Cc1cc(C)c(C=O)c(C)c1 | inactive |
| C/C=C/CO | inactive |
| CCCCOCC | inactive |
| C=C(C)CCCC | inactive |
| CCCCCCCC(=O)OCC | inactive |
| COc1nccnc1CC(C)C | inactive |
| CCCCCCCCCCCCCOP(=O)(O)O | inactive |
| O=c1cccc[nH]1 | inactive |
| CCC(=O)OCCc1ccccc1 | inactive |
| O=C1OC(=O)c2cccc3cccc1c23 | inactive |

Can you look up the measured cAMP activity change of `Oc1cc2ccccc2cc1O` for me?
inactive

Can you look up the measured cAMP activity change of `Clc1nc2ccccc2s1` for me?
inactive

Can you look up the measured cAMP activity change of `COc1ccc(-n2nc(CCC(=O)N(C)O)cc2-c2ccc(Cl)cc2)cc1` for me?
inactive

Can you look up the measured cAMP activity change of CCCCOC(=O)C(C)CC (stereo not given) for me?
inactive

Can you look up the measured cAMP activity change of `O[C@@H](c1cc(C(F)(F)F)nc2c(C(F)(F)F)cccc12)[C@H]1CCCCN1` for me?
inactive

Can you look up the measured cAMP activity change of `O=C=NCc1cccc(CN=C=O)c1` for me?
-0.613% [at 18.9 µM] (inactive)

====

# test name: qHTS assay to identify small molecule agonists of the farnesoid-X-receptor (FXR) signaling pathway - cell viability counter screen (AID 743218); note: nearly all actives have a fitted effect of over 45% in size
# condition: FXR-bla HEK293T viability, CellTiter-Glo luminescence, 16 h; series mostly up to 62.6 µM
Results filed as inconclusive are left out. The source made the active and inactive calls. The call rests on the fitted dose curve; in most records, active means well fitted cell-killing curve with a large enough effect in the repeat runs; inconclusive means weak or mixed curves, or effect the other way; inactive means no such curve, though single readings can be large or run the other way.
The reply should name one outcome from active, inactive

| compound | answer label |
| --- | --- |
| c1ccc(Sc2ccccc2)cc1 | inactive |
| Cc1oc(-c2ccccc2)nc1CCOc1ccc(C[C@H](Nc2ccccc2C(=O)c2ccccc2)C(=O)O)cc1 | active |
| CCN=C1C=CC(=C(c2ccc(N(CC)CC)cc2)c2ccc(N(CC)CC)cc2)c2ccccc21 | active |

Per the assay record, what outcome was assigned to `CCCCCCCC/C=C\CCCCCCCC(=O)NCc1ccc(O)c(OC)c1` ?
active

Per the assay record, what outcome was assigned to `C=C(c1ccc(C(=O)O)cc1)c1cc2c(cc1C)C(C)(C)CCC2(C)C` ?
active

Per the assay record, what outcome was assigned to CC(NCCC(c1ccccc1)c1ccccc1)c1ccccc1 (configuration not stated) ?
active

Per the assay record, what outcome was assigned to CC(O)C#CC(C)O (configuration not stated) ?
inactive

====

# test name: qHTS assay to identify small molecule antagonists of the retinoic acid receptor (RAR) signaling pathway (AID 1159552; note: nearly all actives have a fitted effect of over 50% in size; note: potency is the fitted concentration of half-maximal effect)
# condition: C3RL4 RARE luciferase reporter, retinol-stimulated, 6 h; series mostly up to 92.4 µM
Records with an inconclusive call do not appear. Calls of active or inactive are those of the source. Calls follow the shape of the dose curve; as a rule, active = well fitted inhibition curve with a large enough effect in the repeat runs; inconclusive = weak or mixed curves, or effect the other way; inactive = no such curve, though single readings can be large or run the other way.
readout: Potency

Check out these entries, answers already filled in.
| molecule | readout | result |
| --- | --- | --- |
| CO[Si](CCCNCCNCCN)(OC)OC | Potency | inactive |
| CCCCNc1c(C(=O)OCC)c(C)nc2c1cnn2CC | Potency | inactive |
| OCCCS | Potency | inactive |
| CCOC(=O)COc1ccc(C)cc1 | Potency | inactive |

Can you look up the measured Potency of `COCC(=O)O[C@]1(CCN(C)CCCc2nc3ccccc3[nH]2)CCc2cc(F)ccc2[C@@H]1C(C)C` for me?
26.6 µM (active)

Can you look up the measured Potency of `CC(C)(C)c1n[nH]c(=O)n(N)c1=O` for me?
inactive

Can you look up the measured Potency of `CCCCCCCCCCCCN(CCO)CCO` for me?
54.3 µM (active)

Can you look up the measured Potency of CC(O)C#CC(C)O (stereo unspecified) for me?
30.3 µM (active)

Can you look up the measured Potency of `CCCCCCCCCC(=O)N(C)C` for me?
inactive

Can you look up the measured Potency of `OCCCc1cccnc1` for me?
inactive

Can you look up the measured Potency of `O=C1c2c(O)ccc([N+](=O)[O-])c2C(=O)c2c([N+](=O)[O-])ccc(O)c21` for me?
27.1 µM (active)
